ASSAY_OVERVIEW: Dispersibility test in Japanese Pharmacopoeia First and Second Solution
Type: physicochemical
EXPERIMENTAL_SETUP: JP1, pH 1.2
Hi there, I'd appreciate the recorded Dispersibility in Japanese Pharmacopoeia First Solution for every entry that follows.
Field: numeric (µg/mL). Do not append units.

Request: Query (molecule): O=C(O)CCc1cnc([C@@H]2C[C@H](Oc3cccnc3)CN2C(=O)Cc2cc(Cl)c(NC(=O)c3csc4ccccc34)cc2F)s1 ; field requested: Dispersibility in Japanese Pharmacopoeia First Solution
Result: 2000

Request: Entry under review: COC1CN([C@H]2C[C@@H](c3ncc(CCC(=O)O)s3)N(C(=O)Cc3cc(Cl)c(NC(=O)c4csc5ccccc45)cc3Cl)C2)C1 . Reported Dispersibility in Japanese Pharmacopoeia First Solution?
Result: 1000

Request: Field request: Dispersibility in Japanese Pharmacopoeia First Solution | item: CO[C@@H]1C[C@@H](c2ncc(CCC(=O)O)s2)N(C(=O)Cc2cc(Cl)c(NC(=O)c3csc4ccccc34)cc2F)C1
Result: 7

Request: Given the entry COC1CN([C@H]2C[C@@H](c3ncc(CCC(=O)O)s3)N(C(=O)Cc3cc(Cl)c(NC(=O)c4csc5ccccc45)cc3F)C2)C1 , report its measured Dispersibility in Japanese Pharmacopoeia First Solution.
Result: 1000

Request: Endpoint output: Dispersibility in Japanese Pharmacopoeia First Solution of COC1CN([C@H]2C[C@@H](c3ncc(CCC(=O)O)s3)N(C(=O)Cc3cc(Cl)c(NC(=O)c4coc5ccccc45)cc3F)C2)C1 . Value?
Result: 1000

Request: Quick one: Dispersibility in Japanese Pharmacopoeia First Solution for O=C(O)CCc1cnc([C@@H]2C[C@H](N3CCN(CC(F)(F)F)CC3)CN2C(=O)Cc2cc(Cl)c(NC(=O)c3csc4ccccc34)cc2Cl)s1 ?
Result: 96

Request: Which Dispersibility in Japanese Pharmacopoeia First Solution reading was recorded for the molecule Cn1cc(C(=O)Nc2cc(F)c(CC(=O)N3C[C@@H](N4CCC(F)(F)CC4)C[C@H]3c3ncc(CCC(=O)O)s3)cc2Cl)c2ccccc21 ?
Result: 230

Request: Any idea what Dispersibility in Japanese Pharmacopoeia First Solution was measured for C[C@@H]1CN([C@H]2C[C@@H](c3ncc(CCC(=O)O)s3)N(C(=O)Cc3cc(Cl)c(NC(=O)c4cn(C)c5ccccc45)cc3F)C2)C[C@H](C)O1 ?
Result: 1200

Request: Give the measured Dispersibility in Japanese Pharmacopoeia First Solution of C[C@@H]1CN([C@H]2C[C@@H](c3ncc(CCC(=O)O)s3)N(C(=O)Cc3cc(Cl)c(NC(=O)c4csc5ccccc45)cc3F)C2)C[C@H](C)O1 .
Result: 1200

Request: Suppose we examine the molecule CO[C@H]1C[C@@H](c2ncc(CCC(=O)O)s2)N(C(=O)Cc2cc(Cl)c(Nc3nc4ccccc4s3)cc2Cl)C1 ; what Dispersibility in Japanese Pharmacopoeia First Solution value has been reported?
Result: 420

Request: Endpoint output: Dispersibility in Japanese Pharmacopoeia First Solution of O=C(O)CCc1cnc([C@@H]2C[C@H](N3CCN(CC(F)(F)F)CC3)CN2C(=O)Cc2cc(Cl)c(NC(=O)c3coc4ccccc34)cc2Cl)s1 . Value?
Result: 280

Request: Fill in the blank: the reported Dispersibility in Japanese Pharmacopoeia First Solution of Cn1cc(C(=O)Nc2cc(Cl)c(CC(=O)N3C[C@@H](N4CCN(CC(F)(F)F)CC4)C[C@H]3c3ncc(CCC(=O)O)s3)cc2Cl)c2ccccc21 is ____.
Result: 110

Request: Return reported Dispersibility in Japanese Pharmacopoeia First Solution; argument: C[C@@H]1CN([C@H]2C[C@@H](c3ncc(CCC(=O)O)s3)N(C(=O)Cc3cc(Cl)c(NC(=O)c4coc5ccccc45)cc3F)C2)C[C@H](C)O1
Result: 1100

Request: Give its Dispersibility in Japanese Pharmacopoeia First Solution value. Item: CO[C@H]1C[C@@H](c2ncc(CCC(=O)O)s2)N(C(=O)Cc2cc(Cl)c(Nc3nc4ccccc4o3)cc2F)C1
Result: 730

Request: Using the record for CO[C@H]1C[C@@H](c2ncc(CCC(=O)O)s2)N(C(=O)Cc2cc(Cl)c(Nc3nc4cc(F)ccc4s3)cc2F)C1 , report its Dispersibility in Japanese Pharmacopoeia First Solution.
Result: 180

Request: What value of Dispersibility in Japanese Pharmacopoeia First Solution has been recorded for this entry: CCOC[C@@H]1CC[C@@H](c2ncc(CCC(=O)O)s2)N1C(=O)Cc1ccc2nc(Nc3cc(F)ccc3C)oc2c1F
Result: 88

Request: Endpoint output: Dispersibility in Japanese Pharmacopoeia First Solution of COC1CN([C@H]2C[C@@H](c3ncc(CCC(=O)O)s3)N(C(=O)Cc3cc(Cl)c(NC(=O)c4coc5ccccc45)cc3Cl)C2)C1 . Value?
Result: 1000

Request: So what's the measured Dispersibility in Japanese Pharmacopoeia First Solution for this one? O=C(O)CCc1cnc([C@@H]2C[C@H](N3CCC(F)(F)CC3)CN2C(=O)Cc2cc(Cl)c(NC(=O)c3coc4ccccc34)cc2F)s1
Result: 430

Request: Recorded Dispersibility in Japanese Pharmacopoeia First Solution of O=C(O)CCc1cnc([C@@H]2C[C@H](N3CCC(F)(F)CC3)CN2C(=O)Cc2cc(Cl)c(NC(=O)c3csc4ccccc34)cc2Cl)s1 , please.
Result: 110

Request: Any idea what its Dispersibility in Japanese Pharmacopoeia First Solution is? The molecule is CCOC1CN([C@H]2C[C@@H](c3ncc(CCC(=O)O)s3)N(C(=O)Cc3cc(Cl)c(NC(=O)c4cn(C)c5ccccc45)cc3Cl)C2)C1
Result: 960

Request: What value of Dispersibility in Japanese Pharmacopoeia First Solution has been reported for the following molecule? CO[C@H]1C[C@@H](c2ncc(CCC(=O)O)s2)N(C(=O)Cc2cc(Cl)c(NC(=O)c3cn(C)c4ccccc34)cc2Cl)C1
Result: 33

Request: Query: Dispersibility in Japanese Pharmacopoeia First Solution; subject: COc1ccccc1Nc1nc2ccc(CC(=O)N3C[C@@H](OC)C[C@H]3c3ncc(CCC(=O)O)s3)c(F)c2o1
Result: 1700

Request: Any idea what its Dispersibility in Japanese Pharmacopoeia First Solution is? The molecule is CO[C@H]1C[C@@H](c2ncc(CCC(=O)O)s2)N(C(=O)Cc2cc(Cl)c(Nc3nc4ccccc4o3)cc2Cl)C1
Result: 480

Request: Any idea what its Dispersibility in Japanese Pharmacopoeia First Solution is? The molecule is Cn1cc(C(=O)Nc2cc(Cl)c(CC(=O)N3CCC[C@H]3c3ncc(CCC(=O)O)s3)cc2Cl)c2ccccc21
Result: 4
